Reported Muscle (M): signal compared to the level in the blood values for a set of substances
# Test system: cartilage
# RUN_PARAMETERS: 3 hours after administration; ligated kidneys; 14C-labelled peptide, tail vein
ENDPOINT_NAME: Muscle (M): signal compared to the level in the blood (%)

- 33 (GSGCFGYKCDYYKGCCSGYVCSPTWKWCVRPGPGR) [compound 33]: 28
- 24 (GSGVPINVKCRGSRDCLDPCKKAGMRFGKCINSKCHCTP) [compound 24]: 34
- 29 (GSACKGVFDACTPGKNECCPNRVCSDKHKWCKWKL) [compound 29]: 26
- 196 (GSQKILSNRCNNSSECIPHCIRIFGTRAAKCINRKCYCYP) [compound 196]: 30
- 21 (GSGIVCKVCKIICGMQGKKVNICKAPIKCKCKKG) [compound 21]: 36
- 198 (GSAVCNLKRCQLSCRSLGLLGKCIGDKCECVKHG) [compound 198]: 26
- 26 (GSISCTGSKQCYDPCKRKTGCPNAKCMNKSCKCYGCG) [compound 26]: 38
- 27 (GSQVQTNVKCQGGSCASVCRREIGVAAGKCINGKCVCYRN) [compound 27]: 31

---

# Test system: cartilage
# RUN_PARAMETERS: 3 hours after administration; ligated kidneys; 14C-labelled peptide, tail vein
Each entry below carries its recorded Muscle (M): signal compared to the level in the blood.
ENDPOINT_NAME: Muscle (M): signal compared to the level in the blood (%)

• 31 (GSGCLEFWWKCNPNDDKCCRPKLKCSKLFKLCNFSFG) [compound 31] = 68
• 25 (GSAVCVYRTCDKDCKRRGYRSGKCINNACKCYPYG) [compound 25] = 24
• 433 (GSKCLPPGKPCYGATQKIPCCGVCSHNNCT) [compound 433] = 20
• 28 (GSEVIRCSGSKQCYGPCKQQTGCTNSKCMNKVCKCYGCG) [compound 28] = 17
• 483 (GSISIGIKCSPSIDLCEGQCRIRKYFTGYCSGDTCHCSG) [compound 483] = 24
• 22 (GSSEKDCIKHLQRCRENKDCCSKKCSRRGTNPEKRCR) [compound 22] = 27
• 30 (GSQIYTSKECNGSSECYSHCEGITGKRSGKCINKKCYCYR) [compound 30] = 26
• 485 (METDTLLLWVLLLWVPGSTG) [compound 485] = 21
• 23 (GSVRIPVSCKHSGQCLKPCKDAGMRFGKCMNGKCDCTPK) [compound 23] = 26
